Sourced from ChEMBL document CHEMBL1132009

Assay: Steady state volume of distribution after iv administration to rats
Format: ADME, organism-based
Details: rat, in vivo
result type: Vd (L/kg)
Write down the numeric answer in L/kg and omit the unit.

Fill in the blank: the reported Vd of CNC(=O)[C@H](NC(=O)C(CCc1ccccc1)CP(=O)(O)Cc1ccc(Cc2ccccc2)cc1)C(C)(C)C (stereo partly specified) is ____.
0.2

###

Experiment: Terminal half-life after iv administration to rats
Assay type: ADME, organism-based
Settings: rat, in vivo
result type: half-life (h)
Return type: number; implicit unit h.

Quick check: half-life of CNC(=O)[C@H](NC(=O)C(CCc1ccccc1)CP(=O)(O)Cc1ccc(Cc2ccccc2)cc1)C(C)(C)C (stereo partly specified) ?
2.3

###

// reported IC50 for each item listed
Molecular target: Collagenase 3 (Homo sapiens, UniProt P45452)
Test: Inhibition of recombinant Matrix metalloprotease-13 (MMP-13)

Solved entries:
CNC(=O)[C@H](NC(=O)C(CC(C)C)CP(=O)(O)Cc1ccc(Cc2ccccc2)cc1)C(C)(C)C (stereo not given in full)    180 nM
CNC(=O)[C@H](NC(=O)C(CCC(F)(F)F)CP(=O)(O)Cc1ccc(Cc2ccccc2)cc1)C(C)(C)C (stereo not given in full)    1600 nM
CNC(=O)[C@H](NC(=O)C(CC1CC1)CP(=O)(O)Cc1ccc(Cc2ccccc2)cc1)C(C)(C)C (stereo not given in full)    1100 nM
CNC(=O)[C@H](NC(=O)C(CCC1CCCCC1)CP(=O)(O)Cc1ccc(Cc2ccccc2)cc1)C(C)(C)C (stereo not given in full)    2000 nM

What measured IC50 is associated with CNC(=O)[C@H](NC(=O)C(CCCCOc1ccccc1)CP(=O)(O)Cc1ccc(Cc2ccccc2)cc1)C(C)(C)C (stereo not given in full) on Collagenase 3 (Homo sapiens, UniProt P45452)?
30 nM

Record lookup: for Collagenase 3 (Homo sapiens, UniProt P45452), what IC50 belongs to CNC(=O)[C@H](NC(=O)C(CC1CCC1)CP(=O)(O)Cc1ccc(Cc2ccccc2)cc1)C(C)(C)C (stereo not given in full) ?
110 nM

Given the entry CNC(=O)[C@H](NC(=O)C(CCC(C)C)CP(=O)(O)Cc1ccc(Cc2ccccc2)cc1)C(C)(C)C (stereo not given in full) , what IC50 was observed with Collagenase 3 (Homo sapiens, UniProt P45452)?
> 3000 nM

Request - read-out IC50 | tested on Collagenase 3 (Homo sapiens, UniProt P45452) | molecule CNC(=O)[C@H](NC(=O)C(CC1CCCCC1)CP(=O)(O)Cc1ccc(Cc2ccccc2)cc1)C(C)(C)C (stereo not given in full)
1600 nM

Under Collagenase 3 (Homo sapiens, UniProt P45452): IC50 value of CNC(=O)[C@H](NC(=O)C(CCc1ccccc1)CP(=O)(O)Cc1ccccc1)C(C)(C)C (stereo not given in full) ?
300 nM

Write down the reported IC50 of CNC(=O)[C@H](NC(=O)C(CCc1ccccc1)CP(=O)(O)Cc1ccc(Cc2ccccc2)cc1)C(C)(C)C (stereo not given in full) , test system: Collagenase 3 (Homo sapiens, UniProt P45452).
14 nM

###

Molecular target: Stromelysin-1 (Homo sapiens)
Sequence (P08254 whole entry): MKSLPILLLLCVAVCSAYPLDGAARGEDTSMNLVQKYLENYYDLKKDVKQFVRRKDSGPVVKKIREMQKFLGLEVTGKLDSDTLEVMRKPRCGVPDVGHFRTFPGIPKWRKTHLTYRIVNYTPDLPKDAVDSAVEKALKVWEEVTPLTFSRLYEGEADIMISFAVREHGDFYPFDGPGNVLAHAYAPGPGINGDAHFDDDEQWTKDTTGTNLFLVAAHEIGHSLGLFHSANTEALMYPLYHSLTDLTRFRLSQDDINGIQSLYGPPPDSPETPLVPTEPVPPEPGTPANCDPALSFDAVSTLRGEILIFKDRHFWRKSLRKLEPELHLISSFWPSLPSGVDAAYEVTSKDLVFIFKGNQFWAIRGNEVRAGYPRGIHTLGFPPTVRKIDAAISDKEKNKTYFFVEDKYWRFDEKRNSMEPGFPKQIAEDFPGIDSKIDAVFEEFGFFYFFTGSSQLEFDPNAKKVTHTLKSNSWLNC
Test: Inhibition of recombinant matrix metalloprotease-3 (MMP-3)
result type: pIC50
FYI, pIC50 means -log10 of a concentration in mol per litre.

Which pIC50 value is on record for CNC(=O)[C@H](NC(=O)C(CCc1ccccc1)CP(=O)(O)Cc1ccc(Cc2ccccc2)cc1)C(C)(C)C (some centres not stated) ?
5.92

Reported pIC50 for CNC(=O)[C@H](NC(=O)C(CCc1ccccc1)CP(=O)(O)Cc1ccccc1)C(C)(C)C (some centres not stated) : what is it?
5.57
